These entries and their values trace back to PubChem BioAssay (NCI).

# TGI listing for each entry below
Tested on: SK-MEL-2 melanoma
experimental.protocol: NCI tumour cell line growth inhibition, 48 h
attribute.measured: TGI

- compound: "O=C1[C@H](O)[C@@H]2C(O)O[C@H]3[C@@H]2N1C[C@H]3[Si](c1ccccc1)(c1ccccc1)c1ccccc1 (stereo not given in full)"
  result: "> 100 µM"
- compound: "C[C@@H]1OC(=O)C[C@H]2CC(=O)N(CCC3CN(C(=O)OCc4ccccc4)c4ccccc43)C[C@@H]21 (stereo not given in full)"
  result: "> 100 µM"
- compound: "COc1ccc2c(c1)C(=O)/C(=C/c1cccc(OCC(=O)c3ccccc3)c1)CC2"
  result: "> 100 µM"
- compound: "O=C(Nc1cccc(Cl)c1)Nn1cnnc1"
  result: "> 100 µM"
- compound: "c1ccc(-c2nc(-c3ccccn3)nc(-c3ccccn3)n2)nc1"
  result: "> 100 µM"

----------
Tested on: SK-OV-3 ovarian
experimental.protocol: NCI tumour cell line growth inhibition, 48 h; in the data active = GI50 below about 0.43 µM; inactive = the rest
Classes used: true (active), false (inactive)

- molecule: "CC(=O)c1c(C(F)(F)F)n([O-])c2ccccc2[n+]1=O"
  cat: "false"
- molecule: "Oc1cccc(Nc2nc3ccccc3c3occc23)c1"
  cat: "false"
- molecule: "Cc1cc([NH-])c([NH-])cc1C.[Cl][Pt+2][Cl]"
  cat: "false"
- molecule: "Cc1c2cnccc2c(C)c2c1c1cc(C#N)ccc1n2C"
  cat: "true"
- molecule: "CCCCN(CCCC)Cc1cc(Nc2ccnc3cc(Cl)ccc23)ccc1O"
  cat: "false"
- molecule: "C=C1CCC2C3(C)COC(C)(C)OC3CCC2(C)C1C/C=C1/C(=O)OCC1OC(C)=O (stereo unspecified)"
  cat: "false"

----------
Tested on: HS 578T breast
experimental.protocol: NCI tumour cell line growth inhibition, 48 h; in the data active = GI50 below about 0.43 µM; inactive = the rest
Classes used: active, inactive

- compound: "Clc1ccc(-c2cn3ccnc3c(-c3ccc(Cl)cc3)n2)cc1"
  cat: "inactive"
- compound: "Cc1c2cnccc2c(C)c2c1c1cc(C#N)ccc1n2C"
  cat: "active"
- compound: "N#C[Se]Cc1cc(-c2ccccc2)n(-c2ccc(S(N)(=O)=O)cc2)n1"
  cat: "inactive"
- compound: "O=S(=O)(/N=c1\\scc(-c2ccccc2)n1-c1ccccc1)c1ccc(N2N=C3c4ccccc4CC3C2c2ccc(Cl)cc2)cc1 (configuration not stated)"
  cat: "inactive"
- compound: "COc1cccc(-c2nc3cc(NC(=O)c4ccc(Cl)c(C#N)c4)ccc3o2)c1"
  cat: "inactive"
- compound: "CC1CC(C)CC(C)C(O)/C(C#N)=C/C=C/CC(C2CCCC2C(=O)O)OC(=O)CC(O)C(C)C1 (configuration not stated)"
  cat: "active"
- compound: "CC(CO)Nc1cc(-c2[nH]c3cccnc3c2-c2ccc(F)cc2)ccn1 (configuration not stated)"
  cat: "inactive"
- compound: "O=C(O)c1nc(NCc2nc3cc(Cl)ccc3o2)n[nH]1"
  cat: "inactive"
- compound: "COc1cc(/C=C/C(=O)c2c(C)nc3ccccc3c2/C=C/c2ccccc2)cc(OC)c1OC"
  cat: "inactive"
- compound: "CCOc1ccccc1CCN=C1NC(=O)/C(=C/c2ccc3ncccc3c2)S1"
  cat: "inactive"
- compound: "O=C(NCC1CC1)c1ccc(-c2cccc(C(=O)NC3CC3)c2)cc1"
  cat: "inactive"
- compound: "N#CC(C#N)=C/C=C(\\Cl)c1ccc(Cl)cc1"
  cat: "inactive"

----------
# GI50 listing for each entry below
Test system: T-47D breast
experimental.protocol: NCI tumour cell line growth inhibition, 48 h
attribute.measured: GI50

- cpd.smiles: "COc1cc(/C=C/C(=O)/C=C/c2cc(OC)c3c(c2)OCO3)cc2c1OCO2"
  result: "9620 nM"
- cpd.smiles: "O=C(/C=C(/C=C/c1ccc2[nH]ccc2c1)OB(F)F)/C=C/c1ccc2[nH]ccc2c1"
  result: "1990 nM"
- cpd.smiles: "O=C(c1ccc2ccccc2c1)c1c(C(F)(F)F)n([O-])c2ccc(C(F)(F)F)cc2[n+]1=O"
  result: "755 nM"

----------
# TGI listing for each entry below
Test system: MALME-3M melanoma
experimental.protocol: NCI tumour cell line growth inhibition, 48 h
attribute.measured: TGI

- compound: "O=c1ncccn1[C@@H]1O[C@H](CO)[C@H](O)C1O (some centres undefined)"
  result: "> 100 µM"
- compound: "CC(=O)OCc1c2ccccc2c(C)c2c1cc(F)c1ccccc12"
  result: "> 100 µM"
- compound: "[N-]=[N+]=Nc1c(Cc2ccccc2)c(Cl)nc2ccccc12"
  result: "41.8 µM"
- compound: "CCCCN(CCCC)Cc1cc(Nc2ccnc3cc(Cl)ccc23)ccc1O"
  result: "> 100 µM"
- compound: "CC(=O)NC1C(OCc2ccccc2)OC(CO)C(O)C1OCC(=O)N1CCCC1C(=O)N[C@@H](CCC(=O)NCCCCNc1c2ccccc2nc2cccc([N+](=O)[O-])c12)C(N)=O (some centres undefined)"
  result: "> 100 µM"
- compound: "CCC1(O)C(=O)OCc2c1cc1n(c2=O)Cc2cc3ccccc3nc2-1 (centres undefined)"
  result: "11.8 µM"
- compound: "c1ccc(-c2nc(-c3ccccn3)nc(-c3ccccn3)n2)nc1"
  result: "> 100 µM"
- compound: "NC(=O)CNC(=O)[C@@H]1CC(OCCC(=O)O)CN1C(=O)C1CCCN1C(=O)OCc1ccccc1 (some centres undefined)"
  result: "> 100 µM"
- compound: "C[N+](C)(C)CCC(=O)CC[N+](C)(C)C"
  result: "47.6 µM"
- compound: "C=CCc1c(Cl)nc(Cl)nc1Cl"
  result: "1.47 µM"
- compound: "CC(=O)Nc1ccc(-c2cc(C(=O)O)c3cc4ccccc4cc3n2)cc1"
  result: "> 100 µM"
- compound: "O=C(O)CC(Cc1ccccc1Cl)C(=O)O (centres undefined)"
  result: "> 100 µM"
- compound: "Cc1nc(C(N)=O)c(N)n1CCN1CCN(C(=O)CCCCCCCCCCNC2N=CNc3nc[nH]c32)CC1 (centres undefined)"
  result: "> 100 µM"
- compound: "c1ccc(/C(=N/Nc2nc3ccccc3s2)C2CCCCC2)nc1"
  result: "20.9 µM"
- compound: "CCOC(=O)c1ccc(-n2[nH]nc(C(N)=O)c2=O)cc1"
  result: "> 100 µM"
- compound: "O=[N+]([O-])c1ccccc1OCCOc1ccccc1[N+](=O)[O-]"
  result: "> 100 µM"
- compound: "COc1cc(C)ccc1C(=O)c1ccc(C)cc1OC"
  result: "> 100 µM"
- compound: "CN1N=CSC12C(=O)N(c1ccccc1)C(=O)N2c1ccccc1 (centres undefined)"
  result: "> 100 µM"
- compound: "Cn1nc2ccc([N+](=O)[O-])c(Cn3nnc4ccccc43)c2n1"
  result: "> 100 µM"
- compound: "CC(N=NNc1ccc(-c2nc3ccccc3[nH]2)cc1)C(=O)O (centres undefined)"
  result: "> 100 µM"
- compound: "CC1CC[C@@]2(OC1)OC1C[C@H]3[C@@H]4CC=C5CC(OC6OC(CO)C(OC7OC(CO)C(O)C(OC8OCC(O)C(O)C8O)C7OC7OC(CO)C(OC8OC(C)C(OC9OC(C)C(O)C(O)C9O)C(O)C8O)C(O)C7O)C(O)C6O)CCC5(C)[C@H]4CCC3(C)C1[C@@H]2C (some centres undefined)"
  result: "20.1 µM"
- compound: "O=c1[nH]c(Nc2ccccc2)nc2c1ncn2CC(O)CSCCO (centres undefined)"
  result: "> 100 µM"
- compound: "N=C1C(=N)c2ccccc2-c2ccccc21.[Cl-].[Ru+2].c1ccc(-c2ccccn2)nc1.c1ccc(-c2ccccn2)nc1"
  result: "> 100 µM"
- compound: "CC(C)=CCN1c2ccccc2NC(=O)CC1C (centres undefined)"
  result: "> 100 µM"
- compound: "N#CN1C2CCC1CC(=O)C2"
  result: "> 100 µM"
- compound: "CN(C)CCNc1ccc2c(=O)n(CCN(C)C)c(=O)n3c4ccc(O)cc4c(=O)c1c23"
  result: "0.45 µM"
- compound: "COc1ccc2nccc(C3=CCC4CCN(C(=O)c5ccccc5)C3C4)c2c1 (centres undefined)"
  result: "> 100 µM"
- compound: "NC(=O)Nc1c(Cl)cc(S(N)(=O)=O)cc1Cl"
  result: "> 100 µM"
- compound: "OC1[C@@H]2[C@@H](O)CCCN2C[C@@H](O)[C@H]1O (some centres undefined)"
  result: "> 100 µM"
- compound: "C1CSCCCSCCCSCCCSCCCSCCCSCCCSCCCSC1"
  result: "> 100 µM"
- compound: "O=S(=O)(Nc1ccc(Br)cc1)c1ccc(-c2cnc(C3CC3)o2)cc1"
  result: "17.8 µM"
- compound: "COC(=O)C1(NC(=O)C(CC(=O)OCc2ccccc2)NC(=O)OCc2ccccc2)CCCCCC1 (centres undefined)"
  result: "> 100 µM"
- compound: "COc1cc(Cl)cc(=O)c(O)c1OC"
  result: "> 100 µM"
- compound: "COC(=O)C1=CO[C@@H](OC2CC(CO)C(O)C(O)C2O)[C@@H]2[C@@H](C)[C@@H](OC(=O)/C=C/c3ccccc3)[C@@H](O)[C@H]12 (some centres undefined) (tested in a mixture with another compound)"
  result: "> 100 µM"
- compound: "O=C(NCCCOC(=O)CCCCCCCCC(=O)OCCCNC(=O)NC(=O)c1c[nH]c(=O)[nH]c1=O)NC(=O)c1c[nH]c(=O)[nH]c1=O"
  result: "> 100 µM"
- compound: "CCN1C(=O)N(CC)C2C1NN=c1s/c(=C\\c3ccc(Cl)cc3Cl)c(=O)n12 (centres undefined)"
  result: "> 75 µM"
- compound: "COc1cc2c(c3c1c(=O)c1ccccc1n3C)C=CC1(CCCC1)O2"
  result: "37.8 µM"
- compound: "C=CCOC(=O)N1c2ccc(O[Si](C)(C)C(C)(C)C)cc2[C@@]23O[C@@]24[C@@H]1C#C/C=C\\C#C[C@]3(O)C(OC)(OC)C[C@@H]4C"
  result: "> 100 µM"
- compound: "COc1ccc([C@H]2[C@H]3COC(=O)[C@H]3C(C#N)=C3Sc4ccccc4N32)cc1"
  result: "> 100 µM"
